MEASURED ON: human D-amino acid oxidase (Homo sapiens)
Sequence (P14920 whole entry): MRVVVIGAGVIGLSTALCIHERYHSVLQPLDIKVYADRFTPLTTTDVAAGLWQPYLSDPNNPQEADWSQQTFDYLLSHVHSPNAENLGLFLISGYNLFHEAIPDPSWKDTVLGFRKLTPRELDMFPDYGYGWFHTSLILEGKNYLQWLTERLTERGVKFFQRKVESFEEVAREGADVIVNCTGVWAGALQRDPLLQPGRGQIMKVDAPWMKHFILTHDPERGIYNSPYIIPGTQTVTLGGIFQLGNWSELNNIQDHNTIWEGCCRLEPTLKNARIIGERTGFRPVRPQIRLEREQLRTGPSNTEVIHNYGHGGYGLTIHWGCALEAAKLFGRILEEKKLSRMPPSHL
ASSAY NAME: Inhibition of human D-amino acid oxidase
Type: biochemical
MEASUREMENT SETUP: read-out: IC50 for inhibiting human D-amino acid oxidase
Would you mind telling me the reported pIC50 of each entry?
pIC50 here: minus log base 10 of the concentration, concentration in moles per litre.

Noted for O=C(O)c1cc(O)c(O)c(OC(=O)c2cc(O)c(O)c(OC(=O)c3cc(O)c(O)c(OC(=O)c4cc(O)c(O)c(OC(=O)c5cc(O)c(O)c(O)c5)c4)c3)c2)c1 : its pIC50 reads 6.92

According to the records, this compound O=C(O)c1cc(O)c(O)c(OC(=O)c2cc(O)c(O)c(OC(=O)c3cc(O)c(O)c(O)c3)c2)c1 displays pIC50 of 6.52

====

MEASURED ON: SARS-CoV-2 3CLPro (Severe acute respiratory syndrome coronavirus 2, UniProt P0DTD1)
ASSAY NAME: biochemical
MEASUREMENT SETUP: IC50, Table 34; final DMSO concentration 0.40%
ENDPOINT: pIC50
Lab note: report pIC50 as minus log10 of the concentration in molar units, number only.

Item: O=C(Oc1ccccc1)c1cc(O)c(O)c(OC(=O)c2cc(O)c(O)c(OC(=O)c3cc(O)c(O)c(O)c3)c2)c1 | pIC50: 5.19

Reference source for all entries: patent US11382924B2
